Target: α-Glucosidase (EC 3.2.1.20) from Saccharomyces cerevisiae (Saccharomyces cerevisiae)
Construct: purchased Sigma Chemical Co. (St. Louis, MO, USA)
Sequence (P53341 whole entry): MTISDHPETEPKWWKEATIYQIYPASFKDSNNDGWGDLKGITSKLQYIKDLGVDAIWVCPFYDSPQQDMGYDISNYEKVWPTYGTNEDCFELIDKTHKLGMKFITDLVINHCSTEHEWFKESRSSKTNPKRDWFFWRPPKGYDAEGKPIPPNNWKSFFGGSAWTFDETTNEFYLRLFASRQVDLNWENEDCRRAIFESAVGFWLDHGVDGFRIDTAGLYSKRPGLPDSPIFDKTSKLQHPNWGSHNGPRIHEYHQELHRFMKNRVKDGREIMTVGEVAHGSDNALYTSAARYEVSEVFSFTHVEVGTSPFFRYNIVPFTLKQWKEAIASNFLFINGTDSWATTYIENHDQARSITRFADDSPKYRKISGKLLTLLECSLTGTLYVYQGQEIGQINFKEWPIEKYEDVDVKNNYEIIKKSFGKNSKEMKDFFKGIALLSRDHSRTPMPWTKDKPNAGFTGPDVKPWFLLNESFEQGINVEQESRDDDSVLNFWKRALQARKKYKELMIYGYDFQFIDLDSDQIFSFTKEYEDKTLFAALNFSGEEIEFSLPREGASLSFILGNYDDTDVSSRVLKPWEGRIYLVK
Test: biochemical
Type: biochemical
Conditions: isolated compounds; pH 7.0, 37 °C, 30 min; read-out: α-Glucosidase inhibitory activity IC50
Reported IC50 by item:
ENDPOINT_LABEL: IC50

{"columns": ["MOLECULE", "ENDPOINT_LABEL", "RESULT"],
 "data": [
  ["CCC(CCC(C)C1CCC2C3CC=C4CC(OC(=O)CCCCCCCC(=O)O)CCC4(C)C3CCC12C)C(C)C (centres unmarked)", "IC50", "2.5 µM"],
  ["CCCCCCCCCCCCCCCC(=O)OC[C@H]1O[C@@H](O[C@H]2CC[C@@]3(C)C(=CC[C@H]4[C@@H]5CC[C@H]([C@H](C)CC[C@@H](CC)C(C)C)[C@@]5(C)CC[C@@H]43)C2)[C@H](O)[C@@H](O)[C@@H]1O", "IC50", "21.1 µM"],
  ["CC[C@H](CC[C@@H](C)[C@H]1CC[C@H]2[C@@H]3CC=C4C[C@@H](O)CC[C@]4(C)[C@H]3CC[C@]12C)C(C)C", "IC50", "> 250 µM"],
  ["CCCCCCCCCCCCCCCCCCC(=O)OC1CCC2(C)C(=CCC3C2CCC2(C)C(C(C)CCC(CC)C(C)C)CCC32)C1 (centres unmarked)", "IC50", "27.7 µM"],
  ["CC[C@H](CC[C@@H](C)[C@H]1CC[C@H]2[C@@H]3CC(=O)C4CC(=O)CC[C@]4(C)[C@H]3CC[C@]12C)C(C)C (some centres unmarked)", "IC50", "> 250 µM"]
]}
